Target: Sodium- and chloride-dependent glycine transporter 1 (Mus musculus)
Assay: Inhibition of mouse GlyT1 expressed in porcine aorta […] cells assessed as reduction in [3H]-Glycine uptake incubated for 10 mins at pH 7.4 by scintillation spectroscopy
pIC50: −log10 of the molar value.
Reported pIC50 values for a set of compounds

Some compounds with recorded pIC50:
>  <smiles data>
O=C(O)CCCCSc1ncnc2[nH]c(=O)[nH]c12

>  <pIC50>
< 3.70

$$$$
>  <smiles data>
O=c1[nH]c2c(c(=O)[nH]1)CCN(Cc1ccccc1)C2

>  <pIC50>
< 3.70

$$$$

Now look at this one.
Exercise: Requested read-out: pIC50. Entry: O=C(O)CCSc1[nH]c(=O)nc2[nH]c(=O)[nH]c12
Solution: < 3.70
